Data origin, for the record: patent US6656911B2

Target: human neutrophil elastase (HNE) (Homo sapiens, UniProt P08246)
Assay: HNE Ki of CE compounds, tested as described in WO 96/16080
Assay type: biochemical
Details: read-out: HNE Ki
readout_name: pKi
In textbook form, pKi equals minus log to base ten of the concentration in mol/L.

Some entries whose results are on file:
• CC(=O)N1c2ccccc2C[C@H]1C(=O)N[C@H](C(=O)c1noc(Cc2cccc(C(F)(F)F)c2)n1)C(C)C [CE2143] = 7.94
• Cc1cccc(Cc2nnc(C(=O)[C@@H](NC(=O)[C@@H]3CCCN3C(=O)[C@@H](NC(=O)c3cccnc3)C(C)C)C(C)C)o2)c1 [CE2161] = 10.09
• Cc1cccc(Cc2nnc(C(=O)[C@@H](NC(=O)CN3C(=O)CN=C(c4ccc5c(c4)OCO5)c4ccccc43)C(C)C)o2)c1 [CE2248] = 8.51
• Cc1cccc(Cc2nnc(C(=O)[C@@H](NC(=O)CN3C(=O)CN(Cc4ccccc4)C(=O)[C@@H]3Cc3ccccc3)C(C)C)o2)c1 [CE2128] = 7.19
• CC(C)C(NC(=O)CN1C(=O)C(Cc2ccccc2)N(CCN2CCOCC2)C1=O)C(=O)c1noc(Cc2cccc(C(F)(F)F)c2)n1 (stereo not drawn) [CE2181] = 7.34

The reported human neutrophil elastase (HNE) (Homo sapiens, UniProt P08246) pKi of CC(C)C(NC(=O)CN1C(=O)C(Cc2ccccc2)N(CCN2CCOCC2)C1=O)C(=O)c1noc(Cc2cccc(C(F)(F)F)c2)n1 (stereo not drawn) [CE2180] is 7.36

The reported human neutrophil elastase (HNE) (Homo sapiens, UniProt P08246) pKi of Cc1cccc(Cc2nnc(C(=O)C(NC(=O)CN3C(=O)CNCC3Cc3ccccc3)C(C)C)o2)c1 (stereo not drawn) [CE2196] is 7.02

The reported human neutrophil elastase (HNE) (Homo sapiens, UniProt P08246) pKi of Cc1cccc(Cc2nnc(C(=O)C(NC(=O)CN3C(=O)C(N)N=C(c4ccc(Cl)cc4)c4ccccc43)C(C)C)o2)c1 (stereo not drawn) [CE2224] is 9.00

The reported human neutrophil elastase (HNE) (Homo sapiens, UniProt P08246) pKi of CC(C)[C@H](NC(=O)[C@@H]1CCCN1C(=O)[C@@H](NC(=O)OCc1ccccc1)C(C)C)C(=O)c1noc(Cc2cc(C(F)(F)F)cc(C(F)(F)F)c2)n1 [CE2054] is 9.54

The reported human neutrophil elastase (HNE) (Homo sapiens, UniProt P08246) pKi of Cc1cccc(Cc2nnc(C(=O)[C@@H](NC(=O)CN3C(=O)CN=C(c4ccccc4N(C)C)c4ccccc43)C(C)C)o2)c1 [CE2258] is 8.43

The reported human neutrophil elastase (HNE) (Homo sapiens, UniProt P08246) pKi of Cc1cccc(Cc2nnc(C(=O)[C@@H](NC(=O)CN(Cc3ccccc3)C(=O)Cc3ccccc3)C(C)C)o2)c1 [CE2210] is 7.64

----------
Target: human neutrophil elastase (HNE) (Homo sapiens)
Sequence (P08246 30-267): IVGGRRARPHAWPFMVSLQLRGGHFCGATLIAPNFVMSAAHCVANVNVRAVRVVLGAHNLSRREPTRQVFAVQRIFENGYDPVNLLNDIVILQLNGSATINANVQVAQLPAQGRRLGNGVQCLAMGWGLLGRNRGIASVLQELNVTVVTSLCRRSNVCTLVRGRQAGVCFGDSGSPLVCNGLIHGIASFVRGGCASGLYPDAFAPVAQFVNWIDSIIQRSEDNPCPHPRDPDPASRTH
Test: HNE Ki of CE compounds, tested as described in WO 96/16080
Format: biochemical
Conditions: read-out: HNE Ki
pKi values for the molecules below.
In textbook form, pKi equals minus log to base ten of the concentration in mol/L.

Some entries whose results are on file:
- Cc1cccc(Cc2nnc(C(=O)[C@@H](NC(=O)Cn3c(=O)ncc4ccccc43)C(C)C)o2)c1: 6.79
- Cc1cccc(Cc2nnc(C(=O)C(NC(=O)CN3C(=O)[C@@H](Cc4ccccc4)N(CCN4CCOCC4)C3=O)C(C)C)o2)c1 (stereo partly shown): 8.19
- Cc1cccc(Cc2nnc(C(=O)[C@@H](NC(=O)CN3C(=O)CN=C(c4ccc(C(F)(F)F)cc4)c4ccccc43)C(C)C)o2)c1: 8.52
- Cc1cccc(Cc2nnc(C(=O)[C@@H](NC(=O)[C@@H]3CCCN3C(=O)[C@@H](NS(=O)(=O)c3ccccc3)C(C)C)C(C)C)o2)c1: 9.82
- Cc1cccc(Cc2nnc(C(=O)C(NC(=O)CN3C(=O)CCc4ccccc43)C(C)C)o2)c1 (stereo not shown): 7.18
- CC(C)[C@H](NC(=O)[C@@H]1CCCN1C(=O)[C@@H](NC(=O)OCc1ccccc1)C(C)C)C(=O)c1noc(Cc2cc(-c3ccccc3)cc(-c3ccccc3)c2)n1: 9.10
- COc1ccccc1C1=NCC(=O)N(CC(=O)N[C@H](C(=O)c2nnc(Cc3cccc(C)c3)o2)C(C)C)c2ccccc21: 8.16
- CC(C)[C@H](NC(=O)[C@@H]1Cc2ccccc2N1C(=O)[C@@H](NC(=O)OCc1ccccc1)C(C)C)C(=O)c1noc(Cc2cccc(C(F)(F)F)c2)n1: 9.40

The reported value for CC(C)[C@H](NC(=O)Cn1c(-c2ccc(F)cc2)ncc(N)c1=O)C(=O)c1noc(Cc2cccc(C(F)(F)F)c2)n1 in terms of pKi is 8.57

The reported value for Cc1cccc(Cc2nnc(C(=O)C(NC(=O)C3Cc4cccc5c4N3C(=O)C(N)CC5)C(C)C)o2)c1 (stereo not shown) in terms of pKi is 8.68
